From: paper PMC12757481

- tested target: Hsp90-Aha1 (Saccharomyces cerevisiae, UniProt P02829)
- Construct: made in house
- Sequence (P02829 whole entry): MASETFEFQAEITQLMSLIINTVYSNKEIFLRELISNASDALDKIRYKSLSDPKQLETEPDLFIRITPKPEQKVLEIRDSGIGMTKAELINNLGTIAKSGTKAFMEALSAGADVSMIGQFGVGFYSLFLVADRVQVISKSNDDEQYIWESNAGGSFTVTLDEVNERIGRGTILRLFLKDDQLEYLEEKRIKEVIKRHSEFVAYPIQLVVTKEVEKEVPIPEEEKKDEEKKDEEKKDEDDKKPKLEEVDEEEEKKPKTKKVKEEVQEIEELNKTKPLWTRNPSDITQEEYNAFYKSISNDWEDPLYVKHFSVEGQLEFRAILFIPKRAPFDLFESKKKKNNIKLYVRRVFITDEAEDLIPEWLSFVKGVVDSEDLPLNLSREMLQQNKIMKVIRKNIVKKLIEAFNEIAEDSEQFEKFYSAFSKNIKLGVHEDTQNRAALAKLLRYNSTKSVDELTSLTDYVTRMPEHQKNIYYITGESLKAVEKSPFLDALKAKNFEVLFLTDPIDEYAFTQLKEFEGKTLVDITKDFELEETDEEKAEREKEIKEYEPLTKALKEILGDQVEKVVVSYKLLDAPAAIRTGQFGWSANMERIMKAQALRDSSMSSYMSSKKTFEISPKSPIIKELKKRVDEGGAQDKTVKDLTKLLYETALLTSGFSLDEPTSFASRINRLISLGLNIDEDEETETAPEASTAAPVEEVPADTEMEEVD
- Sequence (Q12449 whole entry partner): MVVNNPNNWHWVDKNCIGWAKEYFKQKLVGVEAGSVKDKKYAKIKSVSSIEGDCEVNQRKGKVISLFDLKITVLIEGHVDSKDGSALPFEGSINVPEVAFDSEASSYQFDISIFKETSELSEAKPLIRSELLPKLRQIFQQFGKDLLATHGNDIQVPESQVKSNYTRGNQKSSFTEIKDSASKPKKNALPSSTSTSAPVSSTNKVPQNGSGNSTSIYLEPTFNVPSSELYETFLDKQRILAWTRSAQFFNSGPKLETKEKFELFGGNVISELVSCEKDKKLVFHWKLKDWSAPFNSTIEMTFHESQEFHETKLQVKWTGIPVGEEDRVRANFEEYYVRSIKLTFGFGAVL
- method notes: ITC, LA1011 binding to nucleotide-free Hsp90-yeast Aha1 complex
- conditions: 20 μM Hsp90, 40 μM yAha1, nucleotide-free, 1:1 fit, read-out: Kd (1:1)
pKd: −log10 of the molar value.
experimental readout: pKd

molecule smiles	experimental readout	measured value
COC(=O)C1=C(CCN(C)C)N(C)C(CCN(C)C)=C(C(=O)OC)C1c1ccc(C(F)(F)F)cc1.Cl.Cl	pKd	3.93

* * *

- tested target: Hsp90-p23-PNP (Saccharomyces cerevisiae)
- Construct: made in house
- Sequence (P02829 whole entry): as the sequence (P02829 whole entry) above
- Sequence (P28707 whole entry partner): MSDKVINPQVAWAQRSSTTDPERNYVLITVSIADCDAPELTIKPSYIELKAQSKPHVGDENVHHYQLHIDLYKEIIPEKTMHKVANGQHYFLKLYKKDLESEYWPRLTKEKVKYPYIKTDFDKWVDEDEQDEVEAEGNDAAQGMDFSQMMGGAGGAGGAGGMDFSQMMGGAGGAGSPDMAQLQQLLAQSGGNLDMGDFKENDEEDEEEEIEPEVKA
- method notes: ITC, LA1011 binding to AMPPNP-Hsp90-p23 complex
- Parameters: species or system yeast
- conditions: 30 μM Hsp90, 200 μM p23, 5 mM Mg-PNP, 1:1 fit, read-out: Kd (1:1)
experimental readout: Kd (µM)

molecule smiles	scale unit	measured value
COC(=O)C1=C(CCN(C)C)N(C)C(CCN(C)C)=C(C(=O)OC)C1c1ccc(C(F)(F)F)cc1.Cl.Cl	µM	58.8
